# Species on record: Rattus norvegicus
# Experimental details: Open TG-GATES - Regimen: Daily Repeat
# Assay type: toxicity, organism-based, Sprague-Dawley
# Set-up: regimen Daily Repeat, gender Male, age 6 weeks
# Settings: in vivo, po, 100 mg/kg, […], tissue Blood, route gavage, dose level Low, time 14 day
Measurement label: PT (s)
Number in s, nothing else.

Worked set:
{"Compound": "CCOc1ccc(NC(C)=O)cc1 [PHENACETIN]", "PT / s": 13.3}
{"Compound": "O=C(OC[C@H]1O[C@@H](OC(=O)c2cc(O)c(O)c(OC(=O)c3cc(O)c(O)c(O)c3)c2)[C@H](OC(=O)c2cc(O)c(O)c(OC(=O)c3cc(O)c(O)c(O)c3)c2)[C@@H](OC(=O)c2cc(O)c(O)c(OC(=O)c3cc(O)c(O)c(O)c3)c2)[C@@H]1OC(=O)c1cc(O)c(O)c(OC(=O)c2cc(O)c(O)c(O)c2)c1)c1cc(O)c(O)c(OC(=O)c2cc(O)c(O)c(O)c2)c1 [TANNIC ACID]", "PT / s": 11.5}
{"Compound": "COC(=O)C1=C(C)NC(C)=C(C(=O)OC)C1c1ccccc1[N+](=O)[O-] [NIFEDIPINE]", "PT / s": 14}
{"Compound": "Cc1nnc2n1-c1ccc(Cl)cc1C(c1ccccc1Cl)=NC2 [TRIAZOLAM]", "PT / s": 13.4}
{"Compound": "CN/C(=N/CCSCc1nc[nH]c1C)NC#N [CIMETIDINE]", "PT / s": 12.7}

Now look at this entry.
Please supply the value of reported PT for the item CNC(=C[N+](=O)[O-])NCCSCc1ccc(CN(C)C)o1 [RANITIDINE] 11.9
